Provide the recorded kon for the entries that follow.
target: T1, Recombinant human CD4 (R&D Systems, Cat. 10327-CD) (human, UniProt P01730 26-390, limits assumed); assay: BLI (Octet Red384), non-clonal supernatant on AMC sensor, 100 nM human CD4, 1:1 local fit;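 further: hybridoma antibodies captured from supernatant, single CD4 concentration as analyte, association and dissociation phases fitted together, giving single-point kinetic estimates per supernatant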
T1 construct: Bought soluble recombinant protein used as analyte at 100 nM; also called huCD4
# output: bare number, implied unit M⁻¹ s⁻¹

Can you look up the measured kon of 75110_03I08A (antibody, V domains shown, Non-clonal AlivaMab Mouse Kappa hybridoma supernatant, captured by anti-mouse IgG Fc (human V regions, mouse Fc)) VH: QVQLQESGPGLVKPSETLSLTCTVSGGSISSYYWSWIRQPPGKGLEWIGYIYYSGSTNYNPSLKSRVTISVDTSKNQFSLKLSSVTAADTAVYYCAREGEQWFYGLDVWGQGTTVTVSS VL: EIVLTQSPGTLSLSPGERATLSCRASQSVSSTYLAWYQQKPGQAPRLLIYGSSSRATGIPDRFSGSGSGTDFTLTISRLEPEDFAVYYCQQYGNSFPITFGQGTRLEIK for me? 37000

Can you look up the measured kon of 75110_04H17A (antibody, V domains shown, Non-clonal AlivaMab Mouse Kappa hybridoma supernatant, captured by anti-mouse IgG Fc (human V regions, mouse Fc)) VH: QVQLQESGPGLVKPSETLSLTCTVSGGSISTYYWSWIRQSAGKGLEWIGRIYTSERPNYNPSLKSRVTMSVDTSKNQFSLKLNSVSAADTAVYYCARELERPYYYGMDVWGQGTTVTVSS VL: DVQMTQSPSSLSASVGGRVTITCQASQDISNYLNWYQQKPGKAPKLLIYYASNLETGVPSRFSGSGSGTDFTFTISSLQPEDFATYYCQQYDNLPLTFGGGTKVEIK for me? 110000

Measured values drawn from patent US20220112288A1 for this set.
